Values were extracted from PubChem BioAssay (NCI).

# System: XF 498 CNS
# assay_protocol: NCI tumour cell line growth inhibition, 48 h
We begin with a simple list: items and their reported TGI.
Numbers only; they are read as µM.

Would you please look over these solved cases?
COc1ccc(OC)c(NC(=O)C(=O)NNC(=O)c2sc(NNC(C)=O)nc2C)c1 | 85.3
Cc1ccc(NC(=O)c2c(C)nc(=O)n3c2N(/N=C/c2ccc(Cl)cc2)CC3)cc1 | 34.1
CC(=O)OC1CCC2(C)C3CCC4(C)C(c5ccc(=O)oc5)CC5OC54C3CCC2(O)C1 (configuration not stated) | 6.97

Form field TGI, entry CCOC(=O)Oc1c(OC)cc(C(=O)NC2CCc3cc(OC)c(OC)c(OC)c3-c3ccc(SC)c(=O)cc32)cc1OC (configuration not stated) : 0.896
